System: Strain px-2
Experiment: Oxygen uptake rate, strain px-2
Assay type: cell-based, bacterial strain px-2
Decide by Oxygen Uptake: equal to or exceeding 0.3 μmol/min-mg total protein means 1, less means -1.

Given "Oc1ccccc1O" , state whether its Oxygen Uptake is at least 0.3 μmol/min-mg total protein.
1

// query: "Cc1ccc(C)cc1"
1

// query: O=C(O)c1ccccc1 [Benzoate]
1

// query: "Cc1ccccc1"
-1

// query: "c1ccccc1"
-1

// query: "Cc1cccc(C)c1"
1

// query: "Cc1ccc(O)c(O)c1"
1

// query: "Cc1cccc(O)c1O"
1

// query: "C=Cc1ccccc1"
1
